Test system: chickweed
experiment: Test D preemergence
Assay type: in vivo, Stellaria media
stated.conditions: 31 g ai/ha, scale 0 to 100
measured.endpoint: Plant response rating, Chickweed

## Input Fill in reported Plant response rating, Chickweed for this entry: CCOc1cc(C(=O)NC(C)C)nn1Cc1ccnc(C(F)(F)F)c1
## Output 100

## Input Return Plant response rating, Chickweed for the following compound: CCCc1cc(C(=O)NCC(F)(F)F)nn1Cc1cc(C(F)(F)F)nn1C
## Output 100

## Input Write down Plant response rating, Chickweed measured for item CCc1cc(C(=O)NC(C)C)nn1Cc1ccnc(C(F)(F)F)c1
## Output 95

## Input Given the compound CCOc1cc(C(=O)NC2CC2)nn1Cc1ccnc(C(F)(F)F)c1 , write its reported Plant response rating, Chickweed.
## Output 95

---

Test system: barnyardgrass
experiment: Test C postemergence
Type: in vivo, Echinochloa crus-galli
stated.conditions: postemergence; 125 g ai/ha; scale 0 to 100, 0 no effect, 100 complete control
Recorded Plant response rating, Barnyardgrass for the following compounds
Kindly provide the number alone.

## Input Output measured Plant response rating, Barnyardgrass for this item: CCCc1cc(C(=O)NCC(F)(F)F)nn1Cc1ccnc(C(F)(F)F)c1
## Output 45

## Input Assign Plant response rating, Barnyardgrass to the following record: CCCc1cc(C(=O)NCC(F)(F)F)nn1Cc1cc(C(F)(F)F)nn1C
## Output 20

## Input Dear colleague, please send me the reported Plant response rating, Barnyardgrass for CCc1cc(C(=O)NCC2CC2)nn1Cc1ccnc(C(F)(F)F)c1 when you can.
## Output 30

---

Item-by-item account of Plant response rating (scale of 0 to 100), Corn
Tested on: corn
experiment: Test C preemergence
Assay type: in vivo, Zea mays
stated.conditions: Preemergence, 250 g ai/ha
Form: value (number only, do not type unit).

> print(dat)
                            compound.smiles  tested.on  observed.result
1  CCONC(=O)c1cc(CC)n(Cc2cc(C(F)(F)F)no2)n1       corn               45
2   CCCc1cc(C(=O)NCC)nn1Cc1cc(C(F)(F)F)nn1C       corn               65
3   CCCc1cc(C(=O)NCC)nn1Cc1ccnc(C(F)(F)F)c1       corn               95

Consider the additional compound presented here.
## Input Would you please give the reported Plant response rating (scale of 0 to 100), Corn of CCc1cc(C(=O)NCC(F)(F)F)nn1Cc1ccnc(C(F)(F)F)c1 with corn?
## Output 98

---

Items are presented alongside their recorded Velvetleaf plant response rating.
System: velvetleaf
experiment: Test A postemergence
Format: in vivo, Abutilon theophrasti
stated.conditions: Postemergence, 500 g ai/ha; 0 to 100 scale (0 no effect, 100 complete control)
From the text: […]

// worked examples, Velvetleaf plant response rating included
> print(dat)
                                   compound   tested.on  observed.result
1  CCCc1cc(C(=O)NCC(F)(F)F)nn1Cc1cc(C(F)(F)F)nn1C [Compound 138]  velvetleaf              100
2  CCc1cc(C(=O)NCC(F)(F)F)nn1Cc1nnc(C(F)(F)F)o1 [Compound 146]  velvetleaf               20
3  CCCCc1cc(C(=O)NCC(F)(F)F)nn1Cc1ccnc(C(F)(F)F)c1 [Compound 148]  velvetleaf               60
4  CCc1cc(C(=O)NC2CC2)nn1Cc1ccnc(OCC(F)(F)F)c1 [Compound 200]  velvetleaf               90

## Input Could you please provide reported Velvetleaf plant response rating for CCCc1cc(C(=O)NOCC)nn1Cc1ccnc(C(F)(F)F)c1 [Compound 185] ? Thanks!
## Output 100

## Input Quickly give me recorded Velvetleaf plant response rating for O=C(NC1CC1)c1cc(Br)n(Cc2cccc(C(F)(F)F)c2)n1 [Compound 160]
## Output 60

## Input Tell us which Velvetleaf plant response rating value is on record for CCONC(=O)c1cc(OCC)n(Cc2ccnc(C(F)(F)F)c2)n1 [Compound 195]
## Output 100

## Input Supply reported Velvetleaf plant response rating belonging to this compound: CCNC(=O)c1cc(CCCl)n(Cc2ccnc(C(F)(F)F)c2)n1 [Compound 179]
## Output 100

## Input Using known records, supply Velvetleaf plant response rating for CCCNC(=O)c1cc(C)n(Cc2ccnc(C(F)(F)F)c2)n1 [Compound 191]
## Output 100
